Target: Hepatocyte growth factor receptor (Homo sapiens)
Assay: Inhibition of recombinant c-MET (unknown origin) using poly (Glu, Tyr) 4:1 as substrate after 45 mins by ELISA
Observation type: IC50 (nM)

Nc1nccc(Oc2ccc(NC(=O)C3(C(=O)Nc4ccc(F)cc4)CC3)cc2F)c1Cl ... 17
CCOc1ccn(-c2ccc(F)cc2)c(=O)c1C(=O)Nc1ccc(Oc2ccnc(N)c2Cl)c(F)c1 ... 12

---

Target: Platelet-derived growth factor receptor alpha (Homo sapiens)
Sequence (P16234 whole entry): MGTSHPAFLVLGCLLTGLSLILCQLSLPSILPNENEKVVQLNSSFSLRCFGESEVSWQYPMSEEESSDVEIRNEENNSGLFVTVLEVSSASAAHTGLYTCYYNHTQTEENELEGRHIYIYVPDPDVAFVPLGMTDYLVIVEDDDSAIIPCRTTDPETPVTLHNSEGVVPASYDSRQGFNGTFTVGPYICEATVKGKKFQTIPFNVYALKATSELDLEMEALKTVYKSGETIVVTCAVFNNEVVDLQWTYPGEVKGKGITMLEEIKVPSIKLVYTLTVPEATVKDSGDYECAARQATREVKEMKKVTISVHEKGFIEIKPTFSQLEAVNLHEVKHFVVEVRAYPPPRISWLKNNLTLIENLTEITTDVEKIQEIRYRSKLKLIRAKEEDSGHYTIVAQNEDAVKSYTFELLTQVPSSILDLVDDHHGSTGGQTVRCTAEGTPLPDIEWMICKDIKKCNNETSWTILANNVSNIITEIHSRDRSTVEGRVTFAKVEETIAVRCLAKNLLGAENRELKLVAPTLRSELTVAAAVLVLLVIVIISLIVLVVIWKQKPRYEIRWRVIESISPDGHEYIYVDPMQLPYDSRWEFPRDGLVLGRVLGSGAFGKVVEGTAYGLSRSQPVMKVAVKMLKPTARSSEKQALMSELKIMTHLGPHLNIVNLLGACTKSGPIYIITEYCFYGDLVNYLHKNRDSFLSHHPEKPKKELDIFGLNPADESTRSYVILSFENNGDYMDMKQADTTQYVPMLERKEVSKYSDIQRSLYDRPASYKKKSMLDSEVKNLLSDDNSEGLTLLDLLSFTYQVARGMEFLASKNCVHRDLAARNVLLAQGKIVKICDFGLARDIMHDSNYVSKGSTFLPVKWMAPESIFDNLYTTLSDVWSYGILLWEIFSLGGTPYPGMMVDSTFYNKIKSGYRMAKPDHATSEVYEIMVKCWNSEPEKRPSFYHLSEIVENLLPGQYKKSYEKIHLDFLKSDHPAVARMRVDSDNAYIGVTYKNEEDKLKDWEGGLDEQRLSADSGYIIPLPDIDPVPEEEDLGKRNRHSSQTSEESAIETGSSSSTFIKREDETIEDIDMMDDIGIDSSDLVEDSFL
pIC50: −log10 of the molar value.
Observation type: pIC50

Inquiry: Can you look up pIC50 on Platelet-derived growth factor receptor alpha (Homo sapiens) for COc1cc2nccc(Oc3ccc(NC(=O)C4(C(=O)Nc5ccc(F)cc5)CC4)cc3)c2cc1OC [CABOZANTINIB] ?
Reply text: < 5.00

---

Target: Vascular endothelial growth factor receptor 2 (Homo sapiens, UniProt P35968)
Sequence (P35968 whole entry): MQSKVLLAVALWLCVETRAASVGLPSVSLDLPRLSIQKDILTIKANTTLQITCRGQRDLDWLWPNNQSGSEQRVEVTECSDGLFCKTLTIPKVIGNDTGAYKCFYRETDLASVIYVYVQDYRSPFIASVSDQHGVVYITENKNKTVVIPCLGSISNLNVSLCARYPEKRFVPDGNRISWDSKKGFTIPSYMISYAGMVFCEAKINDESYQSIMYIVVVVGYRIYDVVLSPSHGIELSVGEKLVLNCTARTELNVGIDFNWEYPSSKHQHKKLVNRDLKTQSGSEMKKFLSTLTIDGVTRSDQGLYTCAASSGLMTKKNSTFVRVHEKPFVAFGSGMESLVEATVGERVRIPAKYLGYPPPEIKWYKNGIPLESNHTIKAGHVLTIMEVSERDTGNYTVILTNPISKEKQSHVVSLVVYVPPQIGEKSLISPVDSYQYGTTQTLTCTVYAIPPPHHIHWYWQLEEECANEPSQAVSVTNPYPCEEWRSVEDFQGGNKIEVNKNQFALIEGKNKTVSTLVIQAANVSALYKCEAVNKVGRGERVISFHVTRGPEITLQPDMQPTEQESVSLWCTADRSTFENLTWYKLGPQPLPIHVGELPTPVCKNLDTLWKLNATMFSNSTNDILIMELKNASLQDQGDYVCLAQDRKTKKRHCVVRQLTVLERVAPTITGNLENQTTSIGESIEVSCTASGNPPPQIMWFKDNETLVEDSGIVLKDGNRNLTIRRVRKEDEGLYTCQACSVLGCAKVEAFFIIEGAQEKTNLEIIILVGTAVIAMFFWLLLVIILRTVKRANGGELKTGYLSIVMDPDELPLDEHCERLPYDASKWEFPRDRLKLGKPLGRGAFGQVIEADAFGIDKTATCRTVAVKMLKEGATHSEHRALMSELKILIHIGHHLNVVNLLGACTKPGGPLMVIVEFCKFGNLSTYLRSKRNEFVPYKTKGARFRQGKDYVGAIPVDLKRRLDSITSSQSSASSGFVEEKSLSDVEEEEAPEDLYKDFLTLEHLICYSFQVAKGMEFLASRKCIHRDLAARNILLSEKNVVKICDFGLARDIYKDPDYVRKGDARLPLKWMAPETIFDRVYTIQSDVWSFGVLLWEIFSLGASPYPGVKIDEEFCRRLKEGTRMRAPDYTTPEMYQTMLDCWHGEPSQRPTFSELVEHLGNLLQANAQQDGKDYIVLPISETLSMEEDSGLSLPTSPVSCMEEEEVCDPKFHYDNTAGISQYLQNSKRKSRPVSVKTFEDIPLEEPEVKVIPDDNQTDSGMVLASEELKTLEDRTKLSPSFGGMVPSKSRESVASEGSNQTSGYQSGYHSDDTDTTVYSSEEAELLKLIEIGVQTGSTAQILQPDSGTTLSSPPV
Observation type: IC50 (nM)
Numeric answer only, unit nM assumed.

Inquiry: Can you look up IC50 on Vascular endothelial growth factor receptor 2 (Homo sapiens, UniProt P35968) for `Nc1nccc(Oc2ccc(NC(=O)C3(C(=O)Nc4ccc(F)cc4)CC3)cc2F)c1Cl` ?
Reply text: 55

---

Listed molecules paired with reported IC50
Biological target: Hepatocyte growth factor receptor (Homo sapiens, UniProt P08581)
Sequence (P08581 whole entry): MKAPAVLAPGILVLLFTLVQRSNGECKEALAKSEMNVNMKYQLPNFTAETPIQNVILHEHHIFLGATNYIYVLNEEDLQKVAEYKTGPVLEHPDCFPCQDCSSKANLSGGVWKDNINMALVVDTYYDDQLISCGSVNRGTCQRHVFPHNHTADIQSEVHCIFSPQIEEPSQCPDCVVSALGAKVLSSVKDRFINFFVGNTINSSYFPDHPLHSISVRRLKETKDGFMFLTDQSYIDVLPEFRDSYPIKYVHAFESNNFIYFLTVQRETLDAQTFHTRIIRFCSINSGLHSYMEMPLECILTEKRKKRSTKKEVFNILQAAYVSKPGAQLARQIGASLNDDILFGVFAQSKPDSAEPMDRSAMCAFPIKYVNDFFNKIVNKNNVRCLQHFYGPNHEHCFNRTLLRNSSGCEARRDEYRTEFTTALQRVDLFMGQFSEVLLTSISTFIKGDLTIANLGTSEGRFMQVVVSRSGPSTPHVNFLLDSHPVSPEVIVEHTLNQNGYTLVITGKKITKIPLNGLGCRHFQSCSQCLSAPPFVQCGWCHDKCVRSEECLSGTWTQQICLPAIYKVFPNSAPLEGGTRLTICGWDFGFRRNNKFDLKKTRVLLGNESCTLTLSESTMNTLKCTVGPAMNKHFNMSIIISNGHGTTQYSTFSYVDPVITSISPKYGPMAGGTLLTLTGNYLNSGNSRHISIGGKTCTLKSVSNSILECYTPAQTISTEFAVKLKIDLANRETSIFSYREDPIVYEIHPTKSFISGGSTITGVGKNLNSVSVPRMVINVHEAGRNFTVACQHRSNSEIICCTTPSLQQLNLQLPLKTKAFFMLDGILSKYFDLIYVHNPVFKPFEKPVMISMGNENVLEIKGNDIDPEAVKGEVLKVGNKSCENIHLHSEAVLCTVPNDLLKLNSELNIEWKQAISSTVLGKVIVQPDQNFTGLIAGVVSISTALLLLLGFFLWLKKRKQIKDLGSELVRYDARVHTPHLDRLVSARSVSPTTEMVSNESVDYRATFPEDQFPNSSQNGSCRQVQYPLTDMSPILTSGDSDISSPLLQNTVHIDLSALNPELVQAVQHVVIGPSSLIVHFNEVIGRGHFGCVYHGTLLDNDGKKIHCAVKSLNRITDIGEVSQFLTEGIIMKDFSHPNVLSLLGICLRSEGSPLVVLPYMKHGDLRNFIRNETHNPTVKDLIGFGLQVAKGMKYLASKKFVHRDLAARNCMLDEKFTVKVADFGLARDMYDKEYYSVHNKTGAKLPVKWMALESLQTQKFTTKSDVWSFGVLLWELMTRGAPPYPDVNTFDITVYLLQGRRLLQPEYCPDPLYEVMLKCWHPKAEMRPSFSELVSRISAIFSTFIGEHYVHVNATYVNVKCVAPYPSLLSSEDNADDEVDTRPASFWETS
Experiment: Inhibition of recombinant c-MET (unknown origin) using poly (Glu, Tyr) 4:1 as substrate after 45 mins by ELISA

Inquiry: Can you look up IC50 on Hepatocyte growth factor receptor (Homo sapiens, UniProt P08581) for `Nc1cc(Oc2ccc(NC(=O)C3(C(=O)NCc4ccc(F)cc4)CC3)cc2F)ncn1` ?
Reply text: > 10 µM

Inquiry: Can you look up IC50 on Hepatocyte growth factor receptor (Homo sapiens, UniProt P08581) for `Nc1nccc(Oc2ccc(NC(=O)C3(C(=O)NCc4ccc(F)cc4)CC3)cc2F)n1` ?
Reply text: > 10 µM

Inquiry: Can you look up IC50 on Hepatocyte growth factor receptor (Homo sapiens, UniProt P08581) for `COc1ccc(NC(=O)C2(C(=O)Nc3ccc(Oc4cc(N)ncn4)c(F)c3)CC2)cc1` ?
Reply text: > 10 µM
